# method_notes: NCI Yeast Anticancer Drug Screen. Data for the rad50 strain (AID 155);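 further: 0% = growth of vehicle-only cultures of the same strain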
# conditions: S. cerevisiae rad50 strain growth inhibition; at 50.0 µM
Compounds without any hit were thinned out: in the full panel of roughly 79,000, 15% have a hit. Activity calls are given as the source filed them. No stated cut-off is given here; in the data, active means growth inhibition above about 70%; inactive means the rest.
Outcome codes: true = active, false = inactive

- molecule: "COc1ccc(CN2COc3c(cc(C)c4cccnc34)C2)cc1"
  discrete_label: "false"
- molecule: "CC(=O)SC(SC(C)=O)SC(C)=O"
  discrete_label: "true"
- molecule: "O=C1C(C(O)(C(F)(F)Cl)C(F)(F)Cl)CCC1C(O)(C(F)(F)Cl)C(F)(F)Cl (configuration not stated)"
  discrete_label: "true"
- molecule: "C/C(=N\\Nc1n[nH]c(=S)n1N)c1c(O)cc(C)oc1=O"
  discrete_label: "false"
- molecule: "O=C(O)c1ccc2c(O)c3ccccc3c(O)c2c1"
  discrete_label: "true"
- molecule: "C(=Nc1ccccc1)c1cn(Cc2ccccc2)c2ccccc12"
  discrete_label: "true"
- molecule: "CCOC(=O)c1csc(=S)[nH]1"
  discrete_label: "true"
- molecule: "Cc1c2ccccc2c(CCl)c2ccc3ccccc3c12"
  discrete_label: "true"
- molecule: "COc1cc(NCCCCCNC2CCCCC2)c2ncccc2c1"
  discrete_label: "true"
- molecule: "CCCCCCCSCC1C(=O)C23CC1CCC2C12COC(O)C1C(C)(C)C(O)CC2OC3=O (configuration not stated)"
  discrete_label: "true"
- molecule: "CCc1ccc(C(=O)O)cc1"
  discrete_label: "false"
- molecule: "CC(O)CCc1nc2ccccc2[nH]1 (configuration not stated)"
  discrete_label: "false"
- molecule: "O=C1C=CC(=O)C1=Cc1ccc(Cl)c(Cl)c1"
  discrete_label: "true"
- molecule: "O=[N+]([O-])c1cc2[nH]cnc2c([N+](=O)[O-])c1NCc1ccccc1"
  discrete_label: "false"
- molecule: "CCN(CC)CCCNc1ccc([N+](=O)[O-])c2nc3ccc(OC)cc3c(N)c12"
  discrete_label: "false"
- molecule: "O=[N+]([O-])c1ccc2c(c1)N([O-])C1(CCCCC1)[N+]2=O"
  discrete_label: "true"
- molecule: "O=C1c2ccccc2CCC1C(O)(C(F)(F)F)C(F)(F)F (configuration not stated)"
  discrete_label: "false"

###

# method_notes: NCI Yeast Anticancer Drug Screen. Data for the sgs1 mgt1 strain (AID 161);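 further: 0% = growth of cultures given vehicle only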
# conditions: S. cerevisiae sgs1 mgt1 strain, at 5.0 µM (retest, dose inferred, filed as 0.5), stronger effect = higher value
Compounds without any hit were thinned out: in the full panel of roughly 79,000, 15% have a hit. Where a SMILES comes first, the peptide text is derived from it. The star is where a group is joined. Fmoc = O=C(OCC1c2ccccc2-c2ccccc21)*; Boc = CC(C)(C)OC(=O)*
Quick reference for growth inhibition among some compounds

- compound: "O=C(C=P(c1ccccc1)(c1ccccc1)c1ccccc1)c1ccc(Cl)cc1"
  growth inhibition / %: 19
- compound: "CCCCCCC(C)OC(=O)c1ccccc1C(=O)O (centres undefined)"
  growth inhibition / %: -6
- compound: "O=C(CC(O)(C(F)(F)F)C(F)(F)Cl)CC(O)(C(F)(F)F)C(F)(F)Cl (centres undefined)"
  growth inhibition / %: 91
- compound: "OCCc1c2ccccc2cc2ccccc12"
  growth inhibition / %: -61
- compound: "CCOC(=O)C(NC(C)=O)[CH](c1ccccc1)[Sn]([Cl])([c]1ccccc1)[c]1ccccc1 (centres undefined)"
  growth inhibition / %: -8
- compound: "C=CCCCCCCCCC(=O)CCCCCCCCC=C"
  growth inhibition / %: -2
- compound: "C=CC1(c2ccc(-c3ccccc3)cc2)OCCO1"
  growth inhibition / %: -4
- compound: "Cc1ccc(S(=O)(=O)NNC(=O)c2sc(-c3nc(C)c(C(=O)NNS(=O)(=O)c4ccc(C)cc4)s3)nc2C)cc1"
  growth inhibition / %: 5
- compound: "CC(C)COC(=O)c1ccc(NC(=O)CCl)cc1"
  growth inhibition / %: 2
- compound: "CC(=O)OC1=CC(n2cc(F)c(=O)[nH]c2=O)OC(C)C1=O (centres undefined)"
  growth inhibition / %: 24
- compound: "O=C(O)c1c[nH]c2cc(Cl)ccc2c1=O"
  growth inhibition / %: -8
- compound: "C=CS(=O)(=O)c1ccc(Cl)cc1"
  growth inhibition / %: -23
- compound: "[O-]c1c2cc(-[n+]3c(-c4ccccc4)cc(-c4ccccc4)cc3-c3ccccc3)cc1CO[C@@H](c1ccccc1)[C@H](c1ccccc1)OCCOCCO[C@@H](c1ccccc1)[C@H](c1ccccc1)OC2"
  growth inhibition / %: 98
- compound: "O=C1c2ccccc2C(O)(c2ccccc2)N1c1ccc([N+](=O)[O-])cc1 (centres undefined)"
  growth inhibition / %: 0
- compound: "C=CCOc1ccccc1C(=O)OC"
  growth inhibition / %: -1
- compound: "CC1C/C(=C\\c2ccc(O)c(O)c2)C(=O)/C(=C/c2ccc(O)c(O)c2)C1 (centres undefined)"
  growth inhibition / %: 17
- compound: "CCCCOc1ccc(CC(O)CN2CCCCC2C)cc1 (centres undefined)"
  growth inhibition / %: 33
- compound: "COc1cccc2c1C(=O)c1c(O)c3c(c(O)c1C2=O)C[C@@](O)(C(=O)CO)C[C@@H]3OC1CC(N)CC(C)O1 (some centres undefined)"
  growth inhibition / %: 61
- compound: "N#CSC#Cc1ccc(C#CSC#N)cc1"
  growth inhibition / %: 100
- compound: "O=C(CN1CCCCC1)c1ccc(/C=C/c2ccc(Cl)cc2)cc1"
  growth inhibition / %: 12
- compound: "CCN(CC)CCNc1ccc(C)c2sc3cccc(O)c3c(=O)c12"
  growth inhibition / %: 15
- compound: "CC(C)(C)OC(=O)NCCCCC(NC(=O)OCC1c2ccccc2-c2ccccc21)C(=O)N1CCCC1C(=O)NCC(N)=O (stereo not drawn) (Fmoc-Lys(Boc)-Pro-Gly-NH2; configuration not given here)"
  growth inhibition / %: 5
- compound: "CCOC(=O)C(C#N)c1cc(O)c(C(C#N)C(=O)OCC)cc1O (centres undefined)"
  growth inhibition / %: -4
- compound: "Oc1ccc(COCCBr)c2cccnc12"
  growth inhibition / %: 4

###

# method_notes: NCI Yeast Anticancer Drug Screen. Data for the sgs1 mgt1 strain (AID 161);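 further: 0% = growth of cultures given vehicle only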
# conditions: S. cerevisiae sgs1 mgt1 strain, at 50.0 µM (retest, dose inferred, filed as 5.0), stronger effect = higher value
This is part of a sample that, as a whole, favours compounds with a hit. Of some 79,000 tested, about 15% had one in any assay.

- compound: "O=C1C(Cl)=C(N2CCN(c3ccccn3)CC2)C(=O)c2ncccc21"
  uom: "%"
  growth inhibition: 97
- compound: "CC(=O)NCC1OC2COC(c3ccccc3)OC2C(NC(=O)c2ccccc2)C1OC(=O)c1ccccc1 (stereo unspecified)"
  uom: "%"
  growth inhibition: -13
- compound: "CCOC(=O)C1(C#N)C(c2ccccc2)CC(O)(c2ccc([N+](=O)[O-])cc2)C(C(=O)c2ccc([N+](=O)[O-])cc2)C1c1ccccc1 (stereo unspecified)"
  uom: "%"
  growth inhibition: 0
- compound: "COC(C(=O)C1=C2Oc3c4c(cc(O)c3C(=O)C2C2=C(CCCC2)C1=O)OC(C)(C)C=C4)C(C)CCC=C(C)C (stereo unspecified)"
  uom: "%"
  growth inhibition: 90
- compound: "CC(=O)OCC1OC(n2ncc3c(Sc4c([N+](=O)[O-])ncn4C)ncnc32)C(OC(C)=O)C1OC(C)=O (stereo unspecified)"
  uom: "%"
  growth inhibition: 99
- compound: "C=CS(=O)(=O)c1ccc([N+](=O)[O-])cc1"
  uom: "%"
  growth inhibition: 98
- compound: "COC(=O)/C=C/c1c2ccccc2cc2ccccc12"
  uom: "%"
  growth inhibition: 46
- compound: "O=C(O)CCCCCCCCCCOc1ccc(Cl)cc1Cl"
  uom: "%"
  growth inhibition: -3
- compound: "Nc1ccccc1C(=O)/C=C/c1ccccc1"
  uom: "%"
  growth inhibition: 70
- compound: "CCC(c1ccc(O)cc1)C(CC)c1ccc(O)c(CN(C)C)c1 (stereo unspecified)"
  uom: "%"
  growth inhibition: 98
- compound: "Cc1cc(N=Nc2ccccc2)ccc1O"
  uom: "%"
  growth inhibition: 100
- compound: "Cc1ccc(/C=C/C(=O)/C=C/c2ccc(C)o2)o1"
  uom: "%"
  growth inhibition: 97
- compound: "Cc1ccc(Cl)cc1NN"
  uom: "%"
  growth inhibition: 89
- compound: "Clc1ccc(C2=NCON=C2c2ccc(Cl)cc2)cc1"
  uom: "%"
  growth inhibition: 99
- compound: "OC(c1cc(-c2ccc(Cl)c(Cl)c2)nc2ccccc12)C1CCCCN1 (stereo unspecified)"
  uom: "%"
  growth inhibition: 77
- compound: "COc1ccc(C(c2c(O)c3ccccc3oc2=O)N2CCOCC2)c(OC)c1 (stereo unspecified)"
  uom: "%"
  growth inhibition: 4
- compound: "OC(CN1CCc2ccccc2C1)c1ccc2ccccc2c1 (stereo unspecified)"
  uom: "%"
  growth inhibition: 86
- compound: "CCCCCC(C)NCC(O)Cc1ccc(OCCCC)cc1 (stereo unspecified)"
  uom: "%"
  growth inhibition: 100
- compound: "c1cc(CCSSCCc2ccncc2)ccn1"
  uom: "%"
  growth inhibition: 79
- compound: "CC(C)c1cc2c(cc1O)C(O)C1(O)CCCC(C)(C)[C@H]1CC2 (stereo partly specified)"
  uom: "%"
  growth inhibition: 99
- compound: "[Pt].c1ccc([PH+](CC[PH+](CC[PH+](c2ccccc2)c2ccccc2)CC[PH+](c2ccccc2)c2ccccc2)c2ccccc2)cc1"
  uom: "%"
  growth inhibition: 97
- compound: "C/C(=N\\NC(=S)N1CCN(c2ccccc2)CC1)c1nccs1"
  uom: "%"
  growth inhibition: 99
- compound: "CCCCCCCCc1cc[n+](C2=C([O-])c3ccccc3C(=O)C2=O)cc1"
  uom: "%"
  growth inhibition: 98
- compound: "Cc1ccc(C(=O)C(CN(C)C)CN(C)C)cc1C"
  uom: "%"
  growth inhibition: 88
- compound: "O=C1C=CC(=O)c2c(O)c(N3CCC[C@@H]3CO)c(Cl)c(O)c21"
  uom: "%"
  growth inhibition: 52
- compound: "Cc1cc(NCCO)nc2c1ccc1ccccc12"
  uom: "%"
  growth inhibition: 16
- compound: "C[n+]1c(-c2ccc(/C=N\\NC(=O)c3cccc(C(=O)N/N=C/c4ccc(-c5cn6ccccc6[n+]5C)cc4)c3)cc2)cn2ccccc21"
  uom: "%"
  growth inhibition: 99
- compound: "Cc1ccccc1C1SCc2nc3ccccc3n21 (stereo unspecified)"
  uom: "%"
  growth inhibition: 1
- compound: "CC(=O)c1c(O)ccc2nc3ccccc3nc12"
  uom: "%"
  growth inhibition: 89
- compound: "N#CSCN1C(=O)C2CC=CCC2C1=O (stereo unspecified)"
  uom: "%"
  growth inhibition: 94
- compound: "Cc1cc(NC(=S)SCc2ccc(F)cc2)ccc1Br"
  uom: "%"
  growth inhibition: 100
